The following molecules have recorded IC50 on Prostaglandin G/H synthase 1 (Homo sapiens, UniProt P23219).
Sequence (P23219 whole entry): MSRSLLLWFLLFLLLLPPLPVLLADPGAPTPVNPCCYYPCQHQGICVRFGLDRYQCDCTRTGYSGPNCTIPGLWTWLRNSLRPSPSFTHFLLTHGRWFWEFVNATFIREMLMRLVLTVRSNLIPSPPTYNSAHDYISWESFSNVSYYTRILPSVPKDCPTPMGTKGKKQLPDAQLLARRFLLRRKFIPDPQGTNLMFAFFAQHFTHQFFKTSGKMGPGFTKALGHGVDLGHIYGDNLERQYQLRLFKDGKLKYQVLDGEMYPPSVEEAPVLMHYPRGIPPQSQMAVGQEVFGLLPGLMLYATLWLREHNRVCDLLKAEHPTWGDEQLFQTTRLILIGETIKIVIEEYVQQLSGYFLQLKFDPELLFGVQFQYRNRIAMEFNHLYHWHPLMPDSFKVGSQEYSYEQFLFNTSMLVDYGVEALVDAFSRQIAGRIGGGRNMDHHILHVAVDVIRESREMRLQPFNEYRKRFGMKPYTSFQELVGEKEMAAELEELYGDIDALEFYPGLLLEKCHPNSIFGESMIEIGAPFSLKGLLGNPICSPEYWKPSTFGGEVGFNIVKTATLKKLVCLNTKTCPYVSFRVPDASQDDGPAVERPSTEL
Recorded metric: IC50 (µM)

[[record]]
input_smiles = "CC1(C)COc2c(C3CCCC3)cc(C(=O)CCCC3CC3)cc21"
unit_annotation = "µM"
value_modifier = ">"
experimental_value = 100

[[record]]
input_smiles = "CCCCC(=O)c1cc(C(C)(C)C)c2c(c1)C(C)(C)CCS2"
unit_annotation = "µM"
value_modifier = "="
experimental_value = 0.4

[[record]]
input_smiles = "CCCC(=O)c1cc(C(C)(C)C)c2c(c1)C(C)(C)CS2"
unit_annotation = "µM"
value_modifier = "="
experimental_value = 1.5

[[record]]
input_smiles = "CC(C)(C)c1cc(C(=O)CCCC2CC2)cc2c1OCC2"
unit_annotation = "µM"
value_modifier = "="
experimental_value = 5

[[record]]
input_smiles = "CC(C)(C)c1cc(C(=O)CCCC2CC2)cc2c1OCCC2(C)C"
unit_annotation = "µM"
value_modifier = "="
experimental_value = 20

[[record]]
input_smiles = "CCCCC(=O)c1cc(C(C)(C)C)c2c(c1)C(C)(C)CCN2C"
unit_annotation = "µM"
value_modifier = "="
experimental_value = 2

[[record]]
input_smiles = "CC1(C)COc2ccc(C(=O)CCCC3CC3)cc21"
unit_annotation = "µM"
value_modifier = "="
experimental_value = 25


Every entry's value here was drawn from ChEMBL document CHEMBL1131303.
